Hey, just so you know, these numbers are from ChEMBL document CHEMBL3232844.

Listed here are molecules together with their documented TGI.
# Test system: DU-145
# Assay Details: Cytotoxicity against human DU145 cells
# Format: functional
# Test Conditions: read-out: pTGI (converted)
Parameter Measured: TGI (µM)

Smiles: COc1cc(/C=C/c2cc(O)c3cc(CC=C(C)C)[nH]c3c2)cc2c1O[C@]1(C)CC[C@@H](O)C(C)(C)[C@H]1C2
Scale Unit: µM
Rel: >
Observed Result: 100
//
Smiles: COc1cc(/C=C/c2cc(O)c3c(CC=C(C)C)c[nH]c3c2)cc2c1O[C@]1(C)CC[C@@H](O)C(C)(C)[C@H]1C2
Scale Unit: µM
Rel: =
Observed Result: 50.1
//
Smiles: COc1cc(/C=C/c2cc(O)c3c(c2)C[C@@H]2C(C)(C)[C@H](O)CC[C@@]2(C)O3)cc2c1ccn2C
Scale Unit: µM
Rel: =
Observed Result: 19.1
//
Smiles: COc1cc(/C=C/c2cc(O)c3cc[nH]c3c2)cc2c1O[C@]1(C)CC[C@@H](O)C(C)(C)[C@H]1C2
Scale Unit: µM
Rel: =
Observed Result: 6.76
//
Smiles: COc1cc(/C=C/c2cc(OC)c3ccn(C)c3c2)cc2c1O[C@]1(C)CC[C@@H](O)C(C)(C)[C@H]1C2
Scale Unit: µM
Rel: =
Observed Result: 66.1
//
Smiles: CC1(C)[C@H](O)CC[C@@]2(C)Oc3c(O)cc(/C=C/c4cc(O)c5cc[nH]c5c4)cc3C[C@H]12
Scale Unit: µM
Rel: =
Observed Result: 6.46
//
Smiles: COc1cc(/C=C/c2cc(O)c3c(c2)C[C@@H]2C(C)(C)[C@H](O)CC[C@@]2(C)O3)cc2[nH]cc(CC=C(C)C)c12
Scale Unit: µM
Rel: =
Observed Result: 39.8

* * *

# Tested on: NCI-H226
# Assay Details: Cytotoxicity against human NCI-H226 cells
# Format: functional
# Test Conditions: read-out: pTGI (converted)
Parameter Measured: TGI

Smiles: COc1cc(/C=C/c2cc(O)c3cc(CC=C(C)C)[nH]c3c2)cc2c1O[C@]1(C)CC[C@@H](O)C(C)(C)[C@H]1C2
Observed Result: > 100 µM
--
Smiles: COc1cc(/C=C/c2cc(O)c3c(C/C=C(\C)CCC=C(C)C)c[nH]c3c2)cc2c1O[C@]1(C)CC[C@@H](O)C(C)(C)[C@H]1C2
Observed Result: > 100 µM
--
Smiles: COc1cc(/C=C/c2cc(OC)c3c(C/C=C(\C)CCC=C(C)C)c[nH]c3c2)cc2c1O[C@]1(C)CC[C@@H](O)C(C)(C)[C@H]1C2
Observed Result: 24.5 µM
--
Smiles: COc1cc(/C=C/c2cc(OC)c3ccn(C)c3c2)cc2c1O[C@]1(C)CC[C@@H](O)C(C)(C)[C@H]1C2
Observed Result: > 100 µM

* * *

# Test system: BT-549
# Assay Details: Cytotoxicity against human BT549 cells
# Format: functional
# Test Conditions: read-out: pTGI (converted)
Overview of reported TGI across a group of compounds:

Smiles: COc1cc(/C=C/c2cc(O)c3cc(CC=C(C)C)[nH]c3c2)cc2c1O[C@]1(C)CC[C@@H](O)C(C)(C)[C@H]1C2
Rel: =
TGI [µM]: 50.1
--
Smiles: COc1cc(/C=C/c2cc(O)c3c(c2)C[C@@H]2C(C)(C)[C@H](O)CC[C@@]2(C)O3)cc2[nH]cc(CC=C(C)C)c12
Rel: =
TGI [µM]: 41.7
--
Smiles: COc1cc(/C=C/c2cc(OC)c3c(CC=C(C)C)c[nH]c3c2)cc2c1O[C@]1(C)CC[C@@H](O)C(C)(C)[C@H]1C2
Rel: =
TGI [µM]: 15.5
--
Smiles: COc1cc(/C=C/c2cc(OC)c3ccn(C)c3c2)cc2c1O[C@]1(C)CC[C@@H](O)C(C)(C)[C@H]1C2
Rel: =
TGI [µM]: 30.9
--
Smiles: COc1cc(/C=C/c2cc(O)c3c(C/C=C(\C)CCC=C(C)C)c[nH]c3c2)cc2c1O[C@]1(C)CC[C@@H](O)C(C)(C)[C@H]1C2
Rel: >
TGI [µM]: 100
